# experiment_description: CCTE_Shafer_MEA_dev_per_burst_spike_percent: CCTE's Neural Network Formation Assay for Percent of Spikes in a Burst, Shafer Lab (AID 2284032)
Active and inactive are the calls of the source. Rule for the calls: active = hit-call score of the fitted dose curve at least 0.9, where 1 is the maximum; inactive = score below 0.9.
A correct response names exactly one class from TRUE for active, FALSE for inactive

See these solved cases before continuing.
{"columns": ["compound", "cat"],
 "data": [
  ["CCCSP(=O)(OCC)Oc1ccc(Br)cc1Cl (stereo not drawn)", "FALSE"],
  ["CC(=NC#N)N(C)Cc1ccc(Cl)nc1", "FALSE"],
  ["S=C1NCCN1", "FALSE"],
  ["CC(C)N(C(=O)SCC(Cl)=C(Cl)Cl)C(C)C", "TRUE"],
  ["CC(Oc1cccc(Cl)c1)C(=O)O (stereo not drawn)", "FALSE"],
  ["CN1COCN(Cc2cnc(Cl)s2)C1=N[N+](=O)[O-]", "FALSE"],
  ["C[N+]1(C)CCCCC1", "FALSE"],
  ["CCOP(=O)(SC(C)CC)N1CCSC1=O (stereo not drawn)", "FALSE"]
]}

Q: # lookup: test call for C#CCC1=C(C)C(OC(=O)C2C(C=C(C)C)C2(C)C)CC1=O (stereo not drawn)
Result: TRUE

Q: What classification did O=[N+]([O-])c1cc(C(F)(F)F)c(Cl)c([N+](=O)[O-])c1Nc1ncc(C(F)(F)F)cc1Cl end up with in this test?
Result: TRUE

Q: Kindly provide the recorded test outcome for the following compound: CCOP(=S)(OCC)Oc1ccc2c(C)c(Cl)c(=O)oc2c1
Result: TRUE

Q: For CN(C)[C@@H]1C(=O)C(C(N)=O)=C(O)[C@@]2(O)C(=O)C3=C(O)c4c(O)cccc4[C@@](C)(O)[C@H]3[C@H](O)[C@@H]12 , which call appears in the assay record?
Result: TRUE

Q: Outcome logged for CCOC(=O)CC(SP(=O)(OC)OC)C(=O)OCC (stereo not drawn) in this assay:
Result: FALSE

---

# target_entity: Bile acid receptor (Homo sapiens)
# experiment_description: OT_FXR_FXRSRC1_0480: Odyssey Thera (OT) 8-hour HEK293T Protein-Complementation Assay for Farnesoid X receptor/SRC-1 Co-activator (AID 2283383)
Inconclusive results are not listed. Calls of active or inactive are those of the source. How the source made its calls: active means hit-call score of the fitted dose curve at least 0.9, where 1 is the maximum; inconclusive means response in the unintended direction; inactive means score below 0.9.
Return exactly one item of TRUE for active, FALSE for inactive

{"columns": ["compound", "cat"],
 "data": [
  ["Cc1cc(C2CC2)nc(Nc2ccccc2)n1", "TRUE"]
]}

Q: Identify the outcome logged in this assay for the compound shown: FC(F)C(F)(F)OCC(Cn1cncn1)c1ccc(Cl)cc1Cl (configuration not stated)
Result: FALSE

Q: Assay outcome for O=c1ccc(=O)[nH][nH]1 : what was it?
Result: FALSE

Q: Outcome logged for CCC(CC)Nc1c([N+](=O)[O-])cc(C)c(C)c1[N+](=O)[O-] in this assay:
Result: TRUE

Q: GET /call?item= CCOC(=O)CC(SP(=O)(OC)OC)C(=O)OCC (configuration not stated) returns the recorded outcome of this test.
Result: FALSE

Q: For CCOP(=O)(NC(C)C)Oc1ccc(SC)c(C)c1 (configuration not stated) , what call appears in the results of this test?
Result: TRUE

Q: Hi team, can someone confirm the assay call for C[Si](Cn1cncn1)(c1ccc(F)cc1)c1ccc(F)cc1 ?
Result: TRUE

Reference for the values: PubChem BioAssay (EPA / NIEHS)
